# Test system: Plasmodium berghei
# measurement protocol: Screen against P. berghei liver stage (PbLuc), transformed with Luciferase, at 10uM
# Assay type: functional, HepG2
# condition parameters: tested at 10 uM
Hit rate of the full screen: of about 69,000 compounds, about 8,600 (12%) showed an effect of 50% or more. The sample as a whole holds a higher share of strong results than the screen did.
Mark class 1 for reported INHIBITION of 10% or greater; mark class 0 for anything smaller.

compound	class label
CCc1ccccc1CNC(=O)CNC(=O)C(C)(C)C	class 0
NC(=O)C1CNCCN1C(=O)COc1ccccc1 (configuration not stated)	class 1
CC(C)OCc1ccccc1CNC(=O)C(C)S(=O)(=O)C(C)C (configuration not stated)	class 0
COc1cccc2[nH]c(C(=O)N3CCNCC3C(N)=O)cc12 (configuration not stated)	class 1

Check this compound for INHIBITION at or above 10%: `CCOc1cccc2c1OCC(=O)N(c1ccc3c(c1)OCO3)C2`
class 1

Check this compound for INHIBITION at or above 10%: `Cc1ccccc1CNC(=O)C1CCN(Cc2nccn2C)CC1`
class 0

Check this compound for INHIBITION at or above 10%: `Cc1cccc(CC(=O)N2CCN(c3nccn3C)CC2)c1`
class 0

Check this compound for INHIBITION at or above 10%: `Cc1cc(C)c(S(N)(=O)=O)cc1C(=O)NCCN1CCCCC1`
class 1

---

# System: Plasmodium berghei
# measurement protocol: Screen against P. berghei liver stage (PbLuc), transformed with Luciferase, at 10uM
# Type: functional, HepG2
# condition parameters: tested at 10 uM
Among all 69,000 compounds or so, about 8,600 (12%) showed an effect of 50% or more. What follows is part of a selection rich in strong results, with near analogues and random picks from the rest.
test readout: INHIBITION (%)
Please state the figure in %; there is no need to write the unit.

Record excerpt, results attached:
molecule	INHIBITION [%]
CC(CN1CC[C@@H]2CCCC[C@@H]2C1)n1cnc2ccccc21 (stereo partly specified)	3.58
CC(CN1CCC(CCO)CC1)n1cnc2ccccc21 (stereo unspecified)	-0.217
O=C(NCc1cncc2c1CCN(CC1CCOC1)C2)c1ccco1 (stereo unspecified)	-46
Cc1nn(C)cc1-c1cc(C(F)F)n2nc(CCC(=O)O)nc2n1	21.9
O=C(O)c1c(-c2cccnc2)ncc2c1CCN(CC1CCOC1)C2 (stereo unspecified)	-21.1

The recorded INHIBITION for CC(CN1CCC(c2ccccc2)CC1)n1cnc2ccccc21 (stereo unspecified) is 56.2

The recorded INHIBITION for `O=C(C1CCOCC1)N1CCc2onc(COc3cccnc3)c2C1` is 46.2

The recorded INHIBITION for `Cc1nccc(NCc2cncc3c2CCN(CC2CC2)C3)n1` is 84.7

The recorded INHIBITION for O=C(NCc1cncc2c1CCN(CC1CCOC1)C2)c1ccno1 (stereo unspecified) is -0.813

The recorded INHIBITION for Cc1nccc(NCc2cncc3c2CCN(CC2CCOC2)C3)n1 (stereo unspecified) is 91.9

The recorded INHIBITION for `COc1cccc(CCNS(=O)(=O)c2ccc(NC(C)=O)cc2)c1` is 22.9

---

# System: Plasmodium berghei
# measurement protocol: Screen against P. berghei liver stage (PbLuc), transformed with Luciferase, at 10uM
# Assay type: functional, HepG2
# condition parameters: tested at 10 uM
The whole screen tested about 69,000 compounds, of which about 8,600 (12%) showed an effect of 50% or more. The sample as a whole holds a higher share of strong results than the screen did.
test readout: INHIBITION (%)
Please state the figure in %; there is no need to write the unit.

Record excerpt, results attached:
molecule	measured on	unit string	readout value
CC(C)n1ncc2c1NC(=O)CC21C(=O)Nc2c(Br)cc(Cl)cc21 (stereo not drawn)	Plasmodium berghei	%	59.3
Cn1cccc1C(=O)N[C@@H]1CN(CC2CC2)[C@@H]2COC[C@@H]21	Plasmodium berghei	%	0.547
CN(Cc1ccc(F)cc1)CC1(O)CCN(C(=O)c2ccncc2)C1 (stereo not drawn)	Plasmodium berghei	%	27.8
Cc1cnc(N2CCCC3(COCCN(c4ccc(C)nn4)C3)C2)nc1 (stereo not drawn)	Plasmodium berghei	%	52.6
c1cnc(N2CCCC3(COCCN(c4nncs4)C3)C2)cn1 (stereo not drawn)	Plasmodium berghei	%	17.5
CSCCC(NC(=O)C1CC1)C(=O)N(C)Cc1ccsc1 (stereo not drawn)	Plasmodium berghei	%	42.6

The recorded INHIBITION for CC(C)n1ncc2c1NC(=O)CC21C(=O)Nc2c(Cl)ccc(Cl)c21 (stereo not drawn) is 73.6

---

INHIBITION values by entry
# Test system: Plasmodium berghei
# measurement protocol: Screen against P. berghei liver stage (PbLuc), transformed with Luciferase, at 10uM
# Assay type: functional, HepG2
# condition parameters: tested at 10 uM
In all, about 69,000 compounds went through this assay and about 8,600 (12%) showed an effect of 50% or more. The list comes from a sample in which strong results are over-represented; it also holds close analogues and randomly drawn compounds.
Please state the figure in %; there is no need to write the unit.

compound	test readout	readout value
CC(CC#N)NC(=O)c1cc(Br)c2c(c1)OCCO2 (stereo not given)	INHIBITION	12.7

The recorded INHIBITION for `CS(=O)(=O)NC[C@]1(O)CCN(C(=O)Cc2cccs2)C[C@H]1O` is -8.12

---

# System: Plasmodium berghei
# measurement protocol: Screen against P. berghei liver stage (PbLuc), transformed with Luciferase, at 10uM
# Assay type: functional, HepG2
# condition parameters: tested at 10 uM
Among all 69,000 compounds or so, about 8,600 (12%) showed an effect of 50% or more. The entries come from a sample that favours strong results as a whole.
INHIBITION values by entry
Please state the figure in %; there is no need to write the unit.

compound	INHIBITION [%]
CC(=O)N1CCCN(C(=O)Nc2ccccc2N2CCOC2=O)CC1	1.37
c1ccc(CCCN2CCN(CCn3cncn3)CC2)cc1	15.1
CC1=CCN(C(=O)Nc2ccccc2N2CCOC2=O)CC1	32.5
COc1cc2c(c(OC)c1OC)CCN(CCn1nc(C)cc1C)CC2	36.3

The recorded INHIBITION for `O=C(CCN1CCN(c2ccc3nncn3n2)CC1)NC1CCCC1` is -51.5

The recorded INHIBITION for COCC(=O)N1CCC(c2cc(-c3ccc(OC)cc3)n[nH]2)C1 (stereo unspecified) is -50.3

---

# Tested on: Plasmodium berghei
# measurement protocol: Screen against P. berghei liver stage (PbLuc), transformed with Luciferase, at 10uM
# Format: functional, HepG2
# condition parameters: tested at 10 uM
The whole screen tested about 69,000 compounds, of which about 8,600 (12%) showed an effect of 50% or more. The entries come from a sample that favours strong results as a whole.
test readout: INHIBITION (%)
Please state the figure in %; there is no need to write the unit.

Record excerpt, results attached:
compound	INHIBITION, %
CNC(=O)CN(C)C(=O)Cc1csc(C(C)C)n1	12.3
CCNC(=O)NC(C)c1nc(-c2ccc(Br)cc2)no1 (stereo not drawn)	33.5
CC(C)c1nc(CN(CC(N)=O)C(C)C)cs1	31.8

The recorded INHIBITION for `CCCC(=O)N(C)CC(=O)Nc1ccc(Br)cn1` is -9.37

The recorded INHIBITION for `CCN(CC(=O)NC)C(=O)Cc1csc(C(C)C)n1` is 62.4

---

INHIBITION values by entry
# System: Plasmodium berghei
# measurement protocol: Screen against P. berghei liver stage (PbLuc), transformed with Luciferase, at 10uM
# Assay type: functional, HepG2
# condition parameters: tested at 10 uM
The campaign covered roughly 69,000 compounds. About 8,600 (12%) showed an effect of 50% or more. For the sample, strong results were picked, then their nearest neighbours and some compounds at random.
The answer consists of two parts: a number and, after it, its unit.

Record excerpt, results attached:
compound	INHIBITION
Cc1ccc(C(=O)NC2CCN(C(=O)Nc3ccccn3)CC2)s1	-21.9%
CC(=O)N1CCC(C(=O)N2CCCC(Cc3ccccn3)C2)CC1 (stereo unspecified)	-6.92%
CC1CCN(C(=O)C2CCCN(C(=O)Nc3ccccn3)C2)CC1 (stereo unspecified)	89.6%

# INHIBITION measured on Plasmodium berghei for item `Cc1ccc(C(=O)NC2CCN(C(=O)Nc3ccccn3)CC2)o1` = -1.58%

# INHIBITION measured on Plasmodium berghei for item O=C(NC1CCCCC1)C1CCCN(C(=O)Nc2ccccn2)C1 (stereo unspecified) = 66.1%

# INHIBITION measured on Plasmodium berghei for item `Cc1cccc(NC2CCN(C(=O)Nc3ccccn3)CC2)n1` = 28.8%
